Test system: A549
Assay: Antiproliferative activity against human A549 cells by MTT assay
Assay type: functional, cell-based
Threshold check on IC50: strictly below 10 µM is Criterion met; on or above 10 µM is Criterion not met.

(Q) Consider the compound C[C@@H]1O[C@@H](O[C@H]2[C@H](O)[C@@H](CO)O[C@@H](O[C@H]3CO[C@@H](O[C@H]4CC[C@]5(C)[C@H]6CC[C@]78OC[C@@]9(CC[C@](C)(C=O)C[C@H]97)[C@H](O)C[C@@]8(C)[C@]6(C)CC[C@H]5C4(C)C)[C@H](O[C@@H]4O[C@H](CO)[C@@H](O)[C@H](O)[C@H]4O)[C@H]3O)[C@@H]2O[C@@H]2OC[C@@H](O)[C@H](O[C@@H]3O[C@H](CO)[C@@H](O)[C@H](O)[C@H]3O)[C@H]2O)[C@H](O)[C@H](O)[C@H]1O . Is its IC50 strictly less than 10 µM?
(A) Criterion met

(Q) Consider the compound CCCCO[C@H]1OC[C@]23CC[C@@]1(C)C[C@H]2C1=CC[C@@H]2[C@@]4(C)CC[C@H](O)C(C)(C)[C@@H]4CC[C@@]2(C)[C@]1(C)C[C@H]3O . Is its IC50 strictly less than 10 µM?
(A) Criterion not met

(Q) Consider the compound C[C@@H]1O[C@@H](O[C@H]2[C@H](O)[C@@H](CO)O[C@@H](O[C@H]3CO[C@@H](O[C@H]4CC[C@]5(C)[C@H]6CC[C@]78OC[C@@]9(CCC(C)(C)C[C@H]97)[C@H](O)C[C@@]8(C)[C@]6(C)CC[C@H]5C4(C)C)[C@H](O[C@@H]4O[C@H](CO)[C@@H](O)[C@H](O)[C@H]4O)[C@H]3O)[C@@H]2O[C@@H]2OC[C@@H](O)[C@H](O)[C@H]2O)[C@H](O)[C@H](O)[C@H]1O . Is its IC50 strictly less than 10 µM?
(A) Criterion not met

(Q) Consider the compound CCCCO[C@@H]1OC[C@]23CC[C@@]1(C)C[C@H]2C1=CC[C@@H]2[C@@]4(C)CC[C@H](O[C@@H]5OC[C@H](O[C@@H]6O[C@H](CO)[C@@H](O)[C@H](O)[C@H]6O)[C@H](O)[C@H]5O[C@@H]5O[C@H](CO)[C@@H](O)[C@H](O)[C@H]5O)C(C)(C)[C@@H]4CC[C@@]2(C)[C@]1(C)C[C@H]3O . Is its IC50 strictly less than 10 µM?
(A) Criterion not met

Continuing:
(Q) Consider the compound C[C@@H]1O[C@@H](O[C@H]2[C@H](O)[C@@H](CO)O[C@@H](O[C@H]3CO[C@@H](O[C@H]4CC[C@]5(C)[C@H]6CC[C@]78OC[C@@]9(CCC(C)(C)C[C@H]97)[C@H](O)C[C@@]8(C)[C@]6(C)CC[C@H]5C4(C)C)[C@H](O[C@@H]4O[C@H](CO)[C@@H](O)[C@H](O)[C@H]4O)[C@H]3O)[C@@H]2O[C@@H]2OC[C@@H](O)[C@H](O[C@@H]3O[C@H](CO)[C@@H](O)[C@H](O)[C@H]3O)[C@H]2O)[C@H](O)[C@H](O)[C@H]1O . Is its IC50 strictly less than 10 µM?
(A) Criterion met

###

# Lookup of reported IC50 keyed by entry
System: A549
Experiment: Antiproliferative activity against human A549 cells by MTT assay
Assay type: functional, cell-based
All answers are understood in µM, so give the number only.

Record C[C@@H]1O[C@@H](O[C@H]2[C@H](O)[C@@H](CO)O[C@@H](O[C@H]3CO[C@@H](O[C@H]4CC[C@]5(C)[C@H]6CC[C@]78OC[C@@]9(CC[C@](C)(CO)C[C@H]97)[C@H](O)C[C@@]8(C)[C@]6(C)CC[C@H]5C4(C)C)[C@H](O[C@@H]4O[C@H](CO)[C@@H](O)[C@H](O)[C@H]4O)[C@H]3O)[C@@H]2O[C@@H]2OC[C@@H](O)[C@H](O)[C@H]2O)[C@H](O)[C@H](O)[C@H]1O , field IC50: 31

Moving on to the next compound.
Record CC1(C)[C@@H](O[C@@H]2OC[C@H](O[C@@H]3O[C@H](CO)[C@@H](O)[C@H](O)[C@H]3O[C@@H]3OC[C@@H](O)[C@H](O)[C@H]3O)[C@H](O)[C@H]2O)CC[C@]2(C)[C@H]3CC[C@]45OC[C@@]6(CC[C@](C)(C=O)C[C@H]64)[C@H](O)C[C@@]5(C)[C@]3(C)CC[C@@H]12 , field IC50: 12

###

Tested on: HCT-8
Experiment: Antiproliferative activity against human HCT8 cells by MTT assay
Assay type: functional, cell-based
ASSAY_ENDPOINT: IC50 (µM)
All answers are understood in µM, so give the number only.

Record O=c1[nH]cc(F)c(=O)[nH]1 [FLUOROURACIL] , field IC50: 6.92

Record CC(=O)OC[C@@]1(C)CC[C@]23CO[C@@]4(CC[C@@H]5[C@@]6(C)CC[C@H](O[C@@H]7OC[C@H](O[C@@H]8O[C@H](CO)[C@@H](O)[C@H](O[C@@H]9O[C@@H](C)[C@H](O)[C@@H](O)[C@H]9O)[C@H]8O[C@@H]8OC[C@@H](O)[C@H](O[C@@H]9O[C@H](CO)[C@@H](O)[C@H](O)[C@H]9O)[C@H]8O)[C@H](O)[C@H]7O[C@@H]7O[C@H](CO)[C@@H](O)[C@H](O)[C@H]7O)C(C)(C)[C@@H]6CC[C@@]5(C)[C@]4(C)C[C@H]2O)[C@@H]3C1 , field IC50: 5.73

Continuing:
Record C[C@@H]1O[C@@H](O[C@H]2[C@H](O)[C@@H](CO)O[C@@H](O[C@H]3CO[C@@H](O[C@H]4CC[C@]5(C)[C@H]6CC[C@]78OC[C@@]9(CC[C@](C)(CO)C[C@H]97)[C@H](O)C[C@@]8(C)[C@]6(C)CC[C@H]5C4(C)C)[C@H](O[C@@H]4O[C@H](CO)[C@@H](O)[C@H](O)[C@H]4O)[C@H]3O)[C@@H]2O[C@@H]2OC[C@@H](O)[C@H](O)[C@H]2O)[C@H](O)[C@H](O)[C@H]1O , field IC50: 8.63

###

Test system: HCT-8
Assay: Antiproliferative activity against human HCT8 cells by MTT assay
Format: functional, cell-based
ASSAY_ENDPOINT: pIC50
// pIC50: -log10(molar conc.)

Record C[C@@H]1O[C@@H](O[C@H]2[C@H](O)[C@@H](CO)O[C@@H](O[C@H]3CO[C@@H](O[C@H]4CC[C@]5(C)[C@H]6CC[C@]78OC[C@@]9(CCC(C)(C)C[C@H]97)[C@H](O)C[C@@]8(C)[C@]6(C)CC[C@H]5C4(C)C)[C@H](O[C@@H]4O[C@H](CO)[C@@H](O)[C@H](O)[C@H]4O)[C@H]3O)[C@@H]2O[C@@H]2OC[C@@H](O)[C@H](O[C@@H]3O[C@H](CO)[C@@H](O)[C@H](O)[C@H]3O)[C@H]2O)[C@H](O)[C@H](O)[C@H]1O , field pIC50: 5.00

###

System: HCT-8
Test: Antiproliferative activity against human HCT8 cells by MTT assay
Assay type: functional, cell-based
ASSAY_ENDPOINT: IC50 (µM)
All answers are understood in µM, so give the number only.

Record CC(=O)OC[C@H]1O[C@@H](O[C@H]2[C@H](O[C@H]3CC[C@]4(C)[C@H]5CC[C@]67OC[C@@]8(CC[C@](C)(C=O)C[C@H]86)[C@H](O)C[C@@]7(C)[C@]5(C)CC[C@H]4C3(C)C)OC[C@H](O[C@@H]3O[C@H](CO)[C@@H](O)[C@H](O[C@@H]4O[C@@H](C)[C@H](O)[C@@H](O)[C@H]4O)[C@H]3O[C@@H]3OC[C@@H](O)[C@H](O)[C@H]3O)[C@@H]2O)[C@H](O)[C@@H](O)[C@@H]1O , field IC50: 4.1

###

# Lookup of reported pIC50 keyed by entry
Test system: A549
Experiment: Antiproliferative activity against human A549 cells by MTT assay
Type: functional, cell-based
// pIC50: -log10(molar conc.)

Reference set (3 entries):
Record C[C@@H]1O[C@@H](O[C@H]2[C@H](O)[C@@H](CO)O[C@@H](O[C@H]3CO[C@@H](O[C@H]4CC[C@]5(C)[C@H]6CC[C@]78OC[C@@]9(CC[C@](C)(C=O)C[C@H]97)C(=O)C[C@@]8(C)[C@]6(C)CC[C@H]5C4(C)C)[C@H](O)[C@H]3O)[C@@H]2O[C@@H]2OC[C@@H](O)[C@H](O)[C@H]2O)[C@H](O)[C@H](O)[C@H]1O , field pIC50: 5.00

Record CC1(C)CC[C@]23CO[C@@]4(CC[C@@H]5[C@@]6(C)CC[C@H](O[C@@H]7OC[C@H](O[C@@H]8O[C@H](CO)[C@@H](O)[C@H](O)[C@H]8O[C@@H]8OC[C@@H](O)[C@H](O)[C@H]8O)[C@H](O)[C@H]7O[C@@H]7O[C@H](CO)[C@@H](O)[C@H](O)[C@H]7O)C(C)(C)[C@@H]6CC[C@@]5(C)[C@]4(C)C[C@H]2O)[C@@H]3C1 [LYSIKOKIANOSIDE 1] , field pIC50: 5.36

Record CC(=O)OC[C@@]1(C)CC[C@]23CO[C@@]4(CC[C@@H]5[C@@]6(C)CC[C@H](O[C@@H]7OC[C@H](O[C@@H]8O[C@H](CO)[C@@H](O)[C@H](O[C@@H]9O[C@@H](C)[C@H](O)[C@@H](O)[C@H]9O)[C@H]8O[C@@H]8OC[C@@H](O)[C@H](O[C@@H]9O[C@H](CO)[C@@H](O)[C@H](O)[C@H]9O)[C@H]8O)[C@H](O)[C@H]7O[C@@H]7O[C@H](CO)[C@@H](O)[C@H](O)[C@H]7O)C(C)(C)[C@@H]6CC[C@@]5(C)[C@]4(C)C[C@H]2O)[C@@H]3C1 , field pIC50: 5.20

Moving on to the next molecule.
Record CC(=O)OC[C@@]1(C)CC[C@]23CO[C@@]4(CC[C@@H]5[C@@]6(C)CC[C@H](O[C@@H]7OC[C@H](O[C@@H]8O[C@H](CO)[C@@H](O)[C@H](O[C@@H]9O[C@@H](C)[C@H](O)[C@@H](O)[C@H]9O)[C@H]8O[C@@H]8OC[C@@H](O)[C@H](O)[C@H]8O)[C@H](O)[C@H]7O[C@@H]7O[C@H](CO)[C@@H](O)[C@H](O)[C@H]7O)C(C)(C)[C@@H]6CC[C@@]5(C)[C@]4(C)C[C@H]2O)[C@@H]3C1 , field pIC50: 4.22
